Test system: NK-92 (IL-2 2.5 ng/mL)
assay procedure: percent inhibition of viability; higher = more inhibition
measurement setup: 72 h; 1000 nM
API: label(entry) gives yes if the entry's percent inhibition of viability is strictly smaller than 20%; on equality or larger values it gives no.

q: In the record for CNC(=O)c1cccc2cc(Oc3ccnc4cc(OCC5(N)CC5)c(OC)cc34)ccc12 [Lucitanib] (max concentration tested 10000 nM) , is percent inhibition of viability less than 20%?
a: yes

q: In the record for O=C(Nc1ccc2[nH]nc(-c3ccncc3)c2c1)[C@@H]1CCN(CC(=O)N2CCN(c3ccc(-c4ncccn4)cc3)CC2)C1 (max concentration tested 10000 nM) , is percent inhibition of viability less than 20%?
a: yes

q: In the record for FC(F)(F)c1ccc(/C=C/c2nc(COc3ccc(CCCCn4ccnn4)cc3)co2)cc1 [Mubritinib] (max concentration tested 1000 nM) , is percent inhibition of viability less than 20%?
a: no

q: In the record for CCCOc1ccn2c(C(C)=O)cc(-c3ccccc3S(C)(=O)=O)c2c1 [GSK2801] (max concentration tested 10000 nM) , is percent inhibition of viability less than 20%?
a: yes

====

System: KAI3 (IL-2 2.5 ng/mL)
assay procedure: percent inhibition of viability; higher = more inhibition
measurement setup: 72 h; 10 nM
Exercise: for every item that follows, state its recorded percent inhibition of viability.
Numeric only. Scale: %

q: Query percent inhibition of viability for CN1CCN(c2cc(C(=O)Nc3ccc4c(c3)-c3c(c(C(N)=O)nn3-c3ccc(F)cc3)CC4)c(Cl)cn2)CC1 [PHA 408] (max concentration tested 10000 nM)
a: 1.36

q: Query percent inhibition of viability for Cc1sc2c(c1C)C(c1ccc(Cl)cc1)=N[C@@H](CC(=O)Nc1ccc(O)cc1)c1nnc(C)n1-2 [OTX015] (max concentration tested 10000 nM)
a: -12.4

q: Query percent inhibition of viability for COc1cccc2c1C(=O)c1c(O)c3c(c(O)c1C2=O)C[C@@](O)(C(C)=O)C[C@@H]3O[C@H]1C[C@H](N)[C@H](O)[C@H](C)O1 [Daunorubicin] (max concentration tested 1000 nM)
a: 19.7

q: Query percent inhibition of viability for CN(C)c1cc2c(cc1Sc1nc3c(N)nccc3n1CCNCC(C)(C)C)OCO2 [CUDC-305] (max concentration tested 10000 nM)
a: -0.19

q: Query percent inhibition of viability for CCCOc1ccn2c(C(C)=O)cc(-c3ccccc3S(C)(=O)=O)c2c1 [GSK2801] (max concentration tested 10000 nM)
a: 1.6

q: Query percent inhibition of viability for CC(C)Oc1ccc(C(=O)N[C@H](CNC(=O)CN(C)C)Cc2ccc(-c3cn4cccc([C@H](C)O)c4n3)cc2)cc1Cl (max concentration tested 10000 nM)
a: -5.43

q: Query percent inhibition of viability for O=C(Nc1ccc2[nH]nc(-c3ccncc3)c2c1)[C@@H]1CCN(CC(=O)N2CCN(c3ccc(-c4ncccn4)cc3)CC2)C1 (max concentration tested 10000 nM)
a: 5.51

q: Query percent inhibition of viability for CN(c1ncccc1CNc1nc(Nc2ccc3c(c2)CC(=O)N3)ncc1C(F)(F)F)S(C)(=O)=O (max concentration tested 10000 nM)
a: -3.17

q: Query percent inhibition of viability for C#Cc1cccc(Nc2ncnc3cc4c(cc23)OCCOCCOCCO4)c1 [Icotinib] (max concentration tested 10000 nM)
a: -3.16

q: Query percent inhibition of viability for S=c1[nH]cnc2nc[nH]c12 [Mercaptopurine] (max concentration tested 10000 nM)
a: -4.2

q: Query percent inhibition of viability for Cc1cc(C(C)Nc2ccccc2)c2nc(N3CCOCC3)cc(=O)n2c1 (configuration not stated) [TGX-221] (max concentration tested 10000 nM)
a: -6.25

q: Query percent inhibition of viability for COc1cc(Nc2ncc(F)c(Nc3ccc4c(n3)NC(=O)C(C)(C)O4)n2)cc(OC)c1OC [Tamatinib] (max concentration tested 10000 nM)
a: 8.73

====

Tested on: normal primary NK cells, pool 3 (3 donors) (IL-2 2.5 ng/mL)
assay procedure: percent inhibition of viability; higher = more inhibition
measurement setup: 72 h; 100 nM
measured quantity: percent inhibition of viability (%)
Numeric only. Scale: %

q: Query percent inhibition of viability for CC(=O)N(O)CCCCCNC(=O)CCC(=O)N(O)CCCCCNC(=O)CCC(=O)N(O)CCCCCN [Deferoxamine] (max concentration tested 10000 nM)
a: 10.4

q: Query percent inhibition of viability for COc1cc(Nc2ncc(F)c(Nc3ccc4c(n3)NC(=O)C(C)(C)O4)n2)cc(OC)c1OC [Tamatinib] (max concentration tested 10000 nM)
a: -13.3

q: Query percent inhibition of viability for COc1ncc(-c2ccc3nccc(-c4ccnnc4)c3c2)cc1NS(=O)(=O)c1ccc(F)cc1F [Omipalisib] (max concentration tested 1000 nM)
a: 5.39

q: Query percent inhibition of viability for Cc1cnc(NC(=O)Nc2cc(Br)c(C)cc2OC[C@@H]2CNCCO2)cn1 [Rabusertib] (max concentration tested 1000 nM)
a: -3.4

====

Tested on: NK-92 (IL-2 2.5 ng/mL)
assay procedure: percent inhibition of viability; higher = more inhibition
measurement setup: 72 h; 10 nM
measured quantity: percent inhibition of viability (%)
Numeric only. Scale: %

q: Query percent inhibition of viability for O=C(O)c1ccc(Nc2ncc3c(n2)-c2ccc(Cl)cc2C(c2c(F)cccc2F)=NC3)cc1 [MLN-8054] (max concentration tested 10000 nM)
a: 3.31

q: Query percent inhibition of viability for CC(=O)c1c(C)c2cnc(Nc3ccc(N4CCNCC4)cn3)nc2n(C2CCCC2)c1=O [Palbociclib] (max concentration tested 10000 nM)
a: -5.34

q: Query percent inhibition of viability for S=c1[nH]cnc2nc[nH]c12 [Mercaptopurine] (max concentration tested 10000 nM)
a: -10.7

q: Query percent inhibition of viability for COC(=O)c1ccc2c(c1)NC(=O)/C2=C(\Nc1ccc(N(C)C(=O)CN2CCN(C)CC2)cc1)c1ccccc1 [Nintedanib] (max concentration tested 10000 nM)
a: 2.39

q: Query percent inhibition of viability for CN(c1ccccc1CNc1nc(Nc2ccc3c(c2)CC(=O)N3)ncc1C(F)(F)F)S(C)(=O)=O (max concentration tested 10000 nM)
a: -24

q: Query percent inhibition of viability for C=CC(=O)Nc1cc2c(Nc3ccc(F)c(Cl)c3)ncnc2cc1OCCCN1CCOCC1 [Canertinib] (max concentration tested 10000 nM)
a: 2.68

q: Query percent inhibition of viability for COc1cc(Nc2ncc3c(n2)-c2ccc(Cl)cc2C(c2c(F)cccc2OC)=NC3)ccc1C(=O)O [Alisertib] (max concentration tested 10000 nM)
a: 21.5

q: Query percent inhibition of viability for O=NN(CCCl)C(=O)NCCCl [Carmustine] (max concentration tested 10000 nM)
a: -0.92

q: Query percent inhibition of viability for CC1=C(/C=C/C(C)=C/C=C/C(C)=C/C(=O)O)C(C)(C)CCC1 [Tretinoin] (max concentration tested 10000 nM)
a: -12.9

q: Query percent inhibition of viability for C[C@@H]1C[C@H]2O[C@@H]2/C=C\C=C\C(=O)Cc2c(Cl)c(O)cc(O)c2C(=O)O1 [Radicicol] (max concentration tested 10000 nM)
a: -4.16

q: Query percent inhibition of viability for CN(C)c1nc(N(C)C)nc(N(C)C)n1 [Altretamine] (max concentration tested 10000 nM)
a: -12.6

q: Query percent inhibition of viability for O=C(/C=C/c1cccnc1)NCCCCC1CCN(C(=O)c2ccccc2)CC1 [Daporinad] (max concentration tested 1000 nM)
a: 78.5

q: Query percent inhibition of viability for Cc1cnc(NC(=O)Nc2cc(Br)c(C)cc2OC[C@@H]2CNCCO2)cn1 [Rabusertib] (max concentration tested 1000 nM)
a: 16

q: Query percent inhibition of viability for CC(C)Oc1ccc(C(=O)N[C@H](CNC(=O)CN(C)C)Cc2ccc(-c3cn4cccc([C@H](C)O)c4n3)cc2)cc1Cl (max concentration tested 10000 nM)
a: 3.89

====

Tested on: normal NK cells expanded with K562-aAPC
assay procedure: percent inhibition of viability; higher = more inhibition
measurement setup: 72 h; IL-2 2.5 ng/mL; 1 nM
measured quantity: percent inhibition of viability (%)
Numeric only. Scale: %

q: Query percent inhibition of viability for CN(c1ccccc1CNc1nc(Nc2ccc3c(c2)CC(=O)N3)ncc1C(F)(F)F)S(C)(=O)=O (max concentration tested 10000 nM)
a: -7.88

q: Query percent inhibition of viability for COc1cc2ncnc(Nc3ccc(F)c(Cl)c3)c2cc1OCCCN1CCOCC1 [Gefitinib] (max concentration tested 10000 nM)
a: -4.93

q: Query percent inhibition of viability for COc1cc(O)c2c(c1)/C=C/C[C@H](O)[C@H](O)C(=O)/C=C\C[C@H](C)OC2=O [(5Z)-7-Oxozeaenol] (max concentration tested 10000 nM)
a: -4.98

q: Query percent inhibition of viability for Cc1[nH]c2ccccc2c1CCNCc1ccc(/C=C/C(=O)NO)cc1 [Panobinostat] (max concentration tested 1000 nM)
a: 2.99

q: Query percent inhibition of viability for NC(=O)c1ccc(I)c([N+](=O)[O-])c1 [Iniparib] (max concentration tested 10000 nM)
a: 7.03

q: Query percent inhibition of viability for CCOc1cc2ncc(C#N)c(Nc3ccc(OCc4ccccn4)c(Cl)c3)c2cc1NC(=O)/C=C/CN(C)C [Neratinib] (max concentration tested 1000 nM)
a: 0.83

q: Query percent inhibition of viability for Cc1cc(C(=O)NOCCO)c(Nc2ccc(I)cc2F)n(C)c1=O [AZD-8330] (max concentration tested 10000 nM)
a: 0.89

q: Query percent inhibition of viability for Cn1cnc2c(F)c(Nc3ccc(Br)cc3Cl)c(C(=O)NOCCO)cc21 [Selumetinib] (max concentration tested 10000 nM)
a: -5.33

q: Query percent inhibition of viability for Cc1c2oc3c(C)ccc(C(=O)N[C@@H]4C(=O)N[C@H](C(C)C)C(=O)N5CCC[C@H]5C(=O)N(C)CC(=O)N(C)[C@@H](C(C)C)C(=O)O[C@@H]4C)c3nc-2c(C(=O)N[C@@H]2C(=O)N[C@H](C(C)C)C(=O)N3CCC[C@H]3C(=O)N(C)CC(=O)N(C)[C@@H](C(C)C)C(=O)O[C@@H]2C)c(N)c1=O [Dactinomycin] (max concentration tested 1000 nM)
a: 5.24

q: Query percent inhibition of viability for CC(=O)NCC(=O)N1[C@@H]2CC[C@H]1c1ccc(Nc3ncc(C(F)(F)F)c(NC4CCC4)n3)cc12 (max concentration tested 10000 nM)
a: -3.83

q: Query percent inhibition of viability for C[C@H]1C[C@@H]2[C@H]([C@@H](O)C[C@@]3(C)[C@H]2CC[C@]3(O)C(=O)CO)[C@@]2(C)C=CC(=O)C=C12 [Methylprednisolone] (max concentration tested 10000 nM)
a: -4.84
